meta.source: the supplement of paper PMC11451515

# System: NOMO1
# Assay: AUC of viability dose-response curve (% viability x log10 dose units); higher = less sensitive
# Run Conditions: RPMI 5 mM glucose + 10% dialyzed FBS; 48 h
Below is a list of entries, each paired with its recorded AUC of viability dose-response curve value.

Known results for compounds:
[[record]]
smi = "CN[C@@H](C)C(=O)N[C@H]1CCCC[C@H]2CC[C@@H](C(=O)N[C@@H](c3ccccc3)c3cn(CCCCc4ccc(CCCCn5cc([C@@H](NC(=O)[C@@H]6CC[C@@H]7CCCC[C@H](NC(=O)[C@H](C)NC)C(=O)N76)c6ccccc6)nn5)cc4)nn3)N2C1=O"
tested_target = "NOMO1"
result = 297

[[record]]
smi = "O=C(c1ccc(F)cc1)C1CCN(CCn2c(=O)[nH]c3ccccc3c2=O)CC1"
tested_target = "NOMO1"
result = 453

[[record]]
smi = "Nc1cccc(-c2cc3c(Oc4cccc(O)c4)ncnc3[nH]2)c1"
tested_target = "NOMO1"
result = 460


Moving on to the next compound.
Item CCC(=O)O[C@@]1([C@H](C)C[C@H]2[C@@H]3C[C@H](F)\C4=C\C(=O)\C=C/[C@]4(C)[C@@]3(F)[C@@H](O)C[C@]12C)C(=O)SCF with NOMO1 - AUC of viability dose-response curve?
439

====

# Test system: SEM cells
# Assay: cell viability relative to DMSO control; higher = less cytotoxic
# Run Conditions: RPMI 5 mM glucose + 10% dialyzed FBS; 48 h; 0.569 µM
Assay Endpoint: cell viability (%)
Express your answer in %, writing the number without its unit.

[[record]]
smi = "C[C@H]1[C@@H](CC(C[C@H]2O[C@@H]3O[C@]4(C)CC[C@H]5[C@H](C)CC[C@@H]([C@H]2C)[C@@]35OO4)C[S+](=O)([O-])c2ccc(COC(=O)N(C)C)cc2)O[C@@H]2O[C@]3(C)CC[C@H]4[C@H](C)CC[C@@H]1[C@@]24OO3"
tested_target = "SEM cells"
result_number = 27.5


Returns the measured cell viability for the input compound. Input: CCC1=C(C)CN(C(=O)NCCc2ccc(S(=O)(=O)NC(=O)N[C@H]3CC[C@H](C)CC3)cc2)C1=O
96.1

Returns the measured cell viability for the input compound. Input: COc1ccc([C@@H]2CNC(=O)C2)cc1OC1CCCC1
104

Returns the measured cell viability for the input compound. Input: O=C(Oc1ccc([N+](=O)[O-])cc1)N1CCN(Cc2cccc(Oc3ccccc3)c2)CC1
109

Returns the measured cell viability for the input compound. Input: c1cc(OCCN2CCCCC2)cc(-c2n[nH]c3ccc(-c4nc[nH]n4)cc23)c1
103

Returns the measured cell viability for the input compound. Input: Nc1cccc(-c2cc3c(Oc4cccc(O)c4)ncnc3[nH]2)c1
133

Returns the measured cell viability for the input compound. Input: CCCn1c(=O)c2[nH]c(C34CC5CC3C[C@@H](C5)C4)nc2n(CCC)c1=O
118

====

# Test system: P12-Ichikawa
# Assay: cell viability relative to DMSO control; higher = less cytotoxic
# Run Conditions: HPLM + 10% dialyzed FBS; 48 h; 1.71 µM
Below is a list of entries, each paired with its recorded cell viability value.

Known results for compounds:
[[record]]
compound = "O=C(Oc1ccc([N+](=O)[O-])cc1)N1CCN(Cc2cccc(Oc3ccccc3)c2)CC1"
tested_target = "P12-Ichikawa"
assay_endpoint = "cell viability"
result = "111%"

[[record]]
compound = "N/C(=N\\C(=O)c1nc(Cl)c(N)nc1N)NCc1ccccc1"
tested_target = "P12-Ichikawa"
assay_endpoint = "cell viability"
result = "108%"

[[record]]
compound = "O=P(O)(O)C(O)(Cc1cccnc1)P(=O)(O)[O][Na] (stereo not given)"
tested_target = "P12-Ichikawa"
assay_endpoint = "cell viability"
result = "100%"

[[record]]
compound = "CC(C)c1ccc2oc3nc(N)c(C(=O)O)cc3c(=O)c2c1"
tested_target = "P12-Ichikawa"
assay_endpoint = "cell viability"
result = "131%"

[[record]]
compound = "C=C1C[C@@]2(O)O[C@@]3(C[C@H]2C(C)C)[C@@H](C)CC[C@@H]13"
tested_target = "P12-Ichikawa"
assay_endpoint = "cell viability"
result = "112%"

[[record]]
compound = "CC1=CC2=C(O1)C(=C3OC(=O)\\C=C(C)/C3=C2)C"
tested_target = "P12-Ichikawa"
assay_endpoint = "cell viability"
result = "111%"

[[record]]
compound = "CC(C)[C@@H](N(CCCN)C(=O)C1=CC=C(C)C=C1)C/2=C(\\CC3=CC=CC=C3)C(=O)C4=C(O2)C=C(Cl)C=C4"
tested_target = "P12-Ichikawa"
assay_endpoint = "cell viability"
result = "11%"

[[record]]
compound = "CCOP(=O)(OCC)C(C)NC(=O)N(CCCl)N=O (stereo not given)"
tested_target = "P12-Ichikawa"
assay_endpoint = "cell viability"
result = "123%"


Returns the measured cell viability for the input compound. Input: CC(C)(Cc1ccc2ccccc2c1)NC[C@@H](O)COc1cccc(Cl)c1C#N
116%

Returns the measured cell viability for the input compound. Input: c1ccc2c(-c3cnn4cc(-c5ccc(N6CCNCC6)cc5)cnc34)ccnc2c1
126%

====

Below is a list of entries, each paired with its recorded AUC of viability dose-response curve value.
# System: NOMO1
# Assay: AUC of viability dose-response curve (% viability x log10 dose units); higher = less sensitive
# Run Conditions: RPMI 5 mM glucose + 10% dialyzed FBS; 48 h
Reply briefly: the number, and no unit.

Known results for compounds:
[[record]]
compound = "Cc1cc(SCc2sc(-c3ccc(C(F)(F)F)c(F)c3)nc2C)ccc1OCC(=O)O"
result_number = 467

[[record]]
compound = "CC1=C(C)C2=C(S1)[N]3C(=NN=C3[C@H](CC(=O)OC(C)(C)C)/N=C2/C4=CC=C(Cl)C=C4)C"
result_number = 296

[[record]]
compound = "CCCCc1oc2ccc(NS(C)(=O)=O)cc2c1C(=O)c1ccc(OCCCN(CCCC)CCCC)cc1"
result_number = 361


Returns the measured AUC of viability dose-response curve for the input compound. Input: CN1C(=O)COc2c(C(=O)NC3CN4CCC3CC4)cc(Cl)cc21 (stereo not given)
439

Returns the measured AUC of viability dose-response curve for the input compound. Input: OC1=C(C=CC=C1)C2=CC=C(C=C2)C3=CSC4=C3C(=C(/C#N)C(=O)N4)/O
453

====

# Tested on: P12-Ichikawa
# Assay: cell viability relative to DMSO control; higher = less cytotoxic
# Run Conditions: RPMI 5 mM glucose + 10% FBS; 48 h; 0.0632 µM
Assay Endpoint: cell viability (%)
Express your answer in %, writing the number without its unit.

Known results for compounds:
[[record]]
compound = "CN[C@@H](C)C(=O)N[C@H]1CCCC[C@H]2CC[C@@H](C(=O)N[C@@H](c3ccccc3)c3cn(CCCCc4ccc(CCCCn5cc([C@@H](NC(=O)[C@@H]6CC[C@@H]7CCCC[C@H](NC(=O)[C@H](C)NC)C(=O)N76)c6ccccc6)nn5)cc4)nn3)N2C1=O"
assay_endpoint = "cell viability"
reading_unit = "%"
result_number = 92.8

[[record]]
compound = "CCc1cc(/C(C)=N/OCc2ccc(C3CCCCC3)c(C(F)(F)F)c2)ccc1CN1CC(C(=O)O)C1"
assay_endpoint = "cell viability"
reading_unit = "%"
result_number = 110

[[record]]
compound = "Cl.Cl.Fc1ccc(C(OCCN2CCN(CCCc3ccccc3)CC2)c2ccc(F)cc2)cc1"
assay_endpoint = "cell viability"
reading_unit = "%"
result_number = 136

[[record]]
compound = "CN1[C@@H]2CC(O)C[C@H]1[C@@H]1O[C@@H]12 (some centres not stated)"
assay_endpoint = "cell viability"
reading_unit = "%"
result_number = 135

[[record]]
compound = "Cn1cc(-c2ccncc2)c(-c2ccc(OCc3ccc4ccccc4n3)cc2)n1"
assay_endpoint = "cell viability"
reading_unit = "%"
result_number = 122


Returns the measured cell viability for the input compound. Input: NC\1=N\C(=O)N(\C=N1)[C@H]2C[C@H](O)[C@@H](CO)O2
106

Returns the measured cell viability for the input compound. Input: O=C(Oc1ccc([N+](=O)[O-])cc1)N1CCN(Cc2cccc(Oc3ccccc3)c2)CC1
111

====

# System: SEM cells
# Assay: cell viability relative to DMSO control; higher = less cytotoxic
# Run Conditions: RPMI 5 mM glucose + 10% FBS; 48 h; 0.0632 µM
Assay Endpoint: cell viability (%)
Express your answer in %, writing the number without its unit.

Known results for compounds:
[[record]]
compound = "CCN(CC)CCOC1=CC=C(NC2=NC=C3\\C=C(/C(=O)N(C)C3=N2)C4=C(Cl)C=CC=C4Cl)C=C1"
tested_target = "SEM cells"
result_number = 48.6

[[record]]
compound = "Clc1ccc(COC(Cn2ccnc2)c2ccc(Cl)cc2Cl)cc1 (centres undefined)"
tested_target = "SEM cells"
result_number = 119

[[record]]
compound = "COc1cc(/C=C/C(=O)CC(=O)/C=C/c2ccc(O)c(OC)c2)ccc1O"
tested_target = "SEM cells"
result_number = 137

[[record]]
compound = "COC(=O)N[C@H](C(=O)N[C@@H](Cc1ccccc1)[C@@H](O)CN(Cc1ccc(-c2ccccn2)cc1)NC(=O)[C@@H](NC(=O)OC)C(C)(C)C)C(C)(C)C"
tested_target = "SEM cells"
result_number = 136

[[record]]
compound = "COc1ccc(-c2c(-c3ccc(O)cc3O)n[nH]c2C)cc1"
tested_target = "SEM cells"
result_number = 108


Moving on to the next compound.
Returns the measured cell viability for the input compound. Input: c1ccc(-c2nn3c(c2-c2ccnc4cc(OCCN5CCOCC5)ccc24)CCC3)nc1
143
